So I've got a bunch of molecules here, and I need their Luciferase Expression (Fold ± SD) values.
- Test system: luciferase reporter under methylated CMV promoter in KG-1 leukemia cells
- METHOD SUMMARY: CMV-luc assay in KG-1 cells
- Format: cell-based
- RUN CONDITIONS: KG-1 CMV-luc, 10 µM, vs DMSO

Look up Luciferase Expression (Fold ± SD): O=C(Nc1cccc(NC(=O)c2ccc(Nc3ccnc4ccccc34)cc2)c1)OCc1ccccc1 [Compound 4c]
28.51 ± 3.39 fold

Same thing, different molecule: O=C(Nc1ccc(NC(=O)c2cccc(Nc3ccnc4ccccc34)c2)cc1)OCc1ccccc1 [Compound 4a]
1.45 ± 0.39 fold

Note, next up: Nc1ncn([C@H]2C[C@H](O)[C@@H](CO)O2)c(=O)n1 [DAC, 5-aza-2′-deoxycytidine, reference compound]
20.96 ± 4.02 fold

Try this molecule next: O=C(Nc1ccc(Nc2ccnc3ccccc23)cc1)c1cccc(Nc2ccnc3ccccc23)c1 [Compound 2a]
4.66 ± 1.63 fold

====

- Tested on: KRAS21R G-quadruplex DNA
- METHOD SUMMARY: FRET melting assay, G-quadruplex DNA
- Format: binding
- RUN CONDITIONS: 5 µM
For each of the compounds below, state its KRAS ∆Tm.

Suppose we examine the compound Cc1cc(Nc2ccc(NC(=O)c3ccc(Nc4ccnc5ccccc45)cc3)cc2)nc(N)n1 [SGI-1027, reference compound] ; what KRAS ∆Tm value has been reported?
6.7 ºC

How about `O=C(Nc1cccc(Nc2ccnc3ccccc23)c1)c1cccc(Nc2ccnc3ccccc23)c1` ?
1.0 ºC

Moving on to `O=C(Nc1cccc(NC(=O)c2ccc(Nc3ccnc4ccccc34)cc2)c1)OCc1ccccc1`
1.0 ºC

Record: `O=C(Nc1cccc(Nc2ccnc3ccccc23)c1)c1ccc(Nc2ccnc3ccccc23)cc1`
0 ºC

# repeat for `O=C(Nc1ccc(Nc2ccnc3ccccc23)cc1)c1cccc(Nc2ccnc3ccccc23)c1`
0 ºC

How about this compound: `O=C(Nc1cccc(NC(=O)c2cccc(Nc3ccnc4ccccc34)c2)c1)OCc1ccccc1`
2.8 ºC

Check O=C(Nc1ccc(NC(=O)c2ccc(Nc3ccnc4ccccc34)cc2)cc1)OCc1ccccc1 [Compound 4, reference compound] too.
1 ºC

Same lookup for O=C(Nc1ccc(Nc2ccnc3ccccc23)cc1)c1ccc(Nc2ccnc3ccccc23)cc1 [Compound 2, reference compound] , please.
1.0 ºC

Same read-out for `O=C(Nc1ccc(NC(=O)c2cccc(Nc3ccnc4ccccc34)c2)cc1)OCc1ccccc1` ?
2.5 ºC

====

- EXPERIMENTAL TARGET: C-terminal catalytic domain of human DNMT3A (hDNMT3A) (Homo sapiens)
- Construct: the C-terminal catalytic domain of human DNMT3A (hDNMT3A)
- METHOD SUMMARY: DNMT3A restriction-based fluorescence assay
- Format: biochemical
- RUN CONDITIONS: mean of at least two independent experiments; read-out: Enzyme Inhibition (EC50 ± SD) hDNMT3A
pEC50: −log10 of the molar value.
# if value of pEC50 reaches 5, tag met; if it stays below, tag not met

Hello, I need to know if Cc1cc(NCc2cccc(NC(=O)c3cccc(Nc4ccnc5ccccc45)c3)c2)nc(N)n1 [Compound 1d] has measured pEC50 not below 5. Thanks!
not met

Then O=C(Nc1cccc(NC(=O)c2ccc(Nc3ccnc4ccccc34)cc2)c1)OCc1ccccc1 [Compound 4c] ?
met

Record: O=C(Nc1ccc(Nc2ccnc3ccccc23)cc1)c1cccc(Nc2ccnc3ccccc23)c1 [Compound 2a]
met

Lookup Cc1cc(Nc2cccc(CNC(=O)c3cccc(Nc4ccnc5ccccc45)c3)c2)nc(N)n1 [Compound 1c]
not met

And the next one, O=C(Nc1ccc(NC(=O)c2cccc(Nc3ccnc4ccccc34)c2)cc1)OCc1ccccc1 [Compound 4a] ?
not met

And for Cc1cc(Nc2cccc(NC(=O)c3cccc(Nc4cc(C)nc(N)n4)c3)c2)nc(N)n1 [Compound 3b] ?
not met

Then this compound: Cc1cc(Nc2ccc(NC(=O)c3cccc(Nc4cc(C)nc(N)n4)c3)cc2)nc(N)n1 [Compound 3a]
not met

Would you kindly repeat that for Cc1cc(Nc2cccc(C(=O)Nc3cccc(Nc4ccnc5ccccc45)c3)c2)nc(N)n1 [Compound 1e] ?
not met

Also need Cc1cc(Nc2cccc(NC(=O)Cc3cccc(Nc4ccnc5ccccc45)c3)c2)nc(N)n1 [Compound 1b] , thanks.
not met

How about this compound: O=C(Nc1cccc(Nc2ccnc3ccccc23)c1)c1ccc(Nc2ccnc3ccccc23)cc1 [Compound 2c]
met

Here is the next compound: Cc1cc(Nc2cccc(NC(=O)c3cccc(CNc4ccnc5ccccc45)c3)c2)nc(N)n1 [Compound 1a]
not met

====

- System: MCF-7 human breast adenocarcinoma
- METHOD SUMMARY: Antiproliferative activity, MTT
- Assay type: cell-based
- RUN CONDITIONS: MCF7, 48 h treatment, read-out: Antiproliferative Activity (IC50 ± SD) MCF-7
For each record, write down the corresponding pIC50.
API: returns pIC50 as number; meaning -log10 of concentration in mol/L.

Reported pIC50 for `O=C(Nc1cccc(Nc2ccnc3ccccc23)c1)c1ccc(Nc2ccnc3ccccc23)cc1` : what is it?
5.66

Can you check `O=C(Nc1cccc(Nc2ccnc3ccccc23)c1)c1cccc(Nc2ccnc3ccccc23)c1` next?
6.52

What would you report for `O=C(Nc1ccc(Nc2ccnc3ccccc23)cc1)c1cccc(Nc2ccnc3ccccc23)c1` ?
5.39

====

For each of the compounds below, state its F21T ∆Tm.
- Test system: F21T G-quadruplex DNA
- METHOD SUMMARY: FRET melting assay, G-quadruplex DNA
- Type: binding
- RUN CONDITIONS: 5 µM

Query: F21T ∆Tm; subject: O=C(Nc1ccc(Nc2ccnc3ccccc23)cc1)c1ccc(Nc2ccnc3ccccc23)cc1 [Compound 2, reference compound]
0.6 ºC

Moving on to `O=C(Nc1cccc(Nc2ccnc3ccccc23)c1)c1cccc(Nc2ccnc3ccccc23)c1`
2.8 ºC

Again, but for `O=C(Nc1cccc(NC(=O)c2ccc(Nc3ccnc4ccccc34)cc2)c1)OCc1ccccc1`
0.8 ºC

Also need O=C(Nc1ccc(NC(=O)c2ccc(Nc3ccnc4ccccc34)cc2)cc1)OCc1ccccc1 [Compound 4, reference compound] , thanks.
2.7 ºC

And what about the compound Cc1cc(Nc2ccc(NC(=O)c3ccc(Nc4ccnc5ccccc45)cc3)cc2)nc(N)n1 [SGI-1027, reference compound] ?
1.9 ºC

`O=C(Nc1cccc(Nc2ccnc3ccccc23)c1)c1ccc(Nc2ccnc3ccccc23)cc1` ?
1 ºC

And what about the compound `O=C(Nc1ccc(NC(=O)c2cccc(Nc3ccnc4ccccc34)c2)cc1)OCc1ccccc1` ?
0 ºC

Query `O=C(Nc1cccc(NC(=O)c2cccc(Nc3ccnc4ccccc34)c2)c1)OCc1ccccc1` next
3.8 ºC

Also check `O=C(Nc1ccc(Nc2ccnc3ccccc23)cc1)c1cccc(Nc2ccnc3ccccc23)c1`
0 ºC

====

Please respond with reported KRAS ∆Tm for every item in the list.
- System: KRAS21R G-quadruplex DNA
- METHOD SUMMARY: FRET melting assay, G-quadruplex DNA
- Assay type: binding
- RUN CONDITIONS: 10 µM

# get_value(readout= KRAS ∆Tm, system= KRAS21R G-quadruplex DNA) for O=C(Nc1ccc(Nc2ccnc3ccccc23)cc1)c1ccc(Nc2ccnc3ccccc23)cc1 [Compound 2, reference compound]
9.6 ºC

What do we get for `O=C(Nc1cccc(Nc2ccnc3ccccc23)c1)c1cccc(Nc2ccnc3ccccc23)c1` ?
7.7 ºC

Another compound: O=C(Nc1ccc(NC(=O)c2ccc(Nc3ccnc4ccccc34)cc2)cc1)OCc1ccccc1 [Compound 4, reference compound]
10.4 ºC

Consider next the compound Cc1cc(Nc2ccc(NC(=O)c3ccc(Nc4ccnc5ccccc45)cc3)cc2)nc(N)n1 [SGI-1027, reference compound] in the same way.
8.7 ºC

And the next one, `O=C(Nc1cccc(NC(=O)c2ccc(Nc3ccnc4ccccc34)cc2)c1)OCc1ccccc1` ?
2.6 ºC

Let us now turn to `O=C(Nc1ccc(NC(=O)c2cccc(Nc3ccnc4ccccc34)c2)cc1)OCc1ccccc1`
4.6 ºC

Same for `O=C(Nc1cccc(NC(=O)c2cccc(Nc3ccnc4ccccc34)c2)c1)OCc1ccccc1`
2.5 ºC

Here is the next compound: `O=C(Nc1cccc(Nc2ccnc3ccccc23)c1)c1ccc(Nc2ccnc3ccccc23)cc1`
3.4 ºC

Entry to check: `O=C(Nc1ccc(Nc2ccnc3ccccc23)cc1)c1cccc(Nc2ccnc3ccccc23)c1`
6.4 ºC

====

Give EC50 for every item shown.
- EXPERIMENTAL TARGET: C-terminal catalytic domain of human DNMT3A (hDNMT3A) (Homo sapiens, UniProt Q9Y6K1)
- Construct: the C-terminal catalytic domain of human DNMT3A (hDNMT3A)
- Sequence (Q9Y6K1 634-912 limits assumed): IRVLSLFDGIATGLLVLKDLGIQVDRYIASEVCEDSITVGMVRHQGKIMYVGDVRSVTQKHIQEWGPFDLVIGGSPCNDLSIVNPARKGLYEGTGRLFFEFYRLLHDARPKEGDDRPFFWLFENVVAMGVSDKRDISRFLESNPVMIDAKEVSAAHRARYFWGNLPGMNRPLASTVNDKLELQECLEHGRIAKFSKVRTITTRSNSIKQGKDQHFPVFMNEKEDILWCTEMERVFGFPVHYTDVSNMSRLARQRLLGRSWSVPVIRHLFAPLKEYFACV
- METHOD SUMMARY: DNMT3A restriction-based fluorescence assay
- RUN CONDITIONS: mean of at least two independent experiments; read-out: Enzyme Inhibition (EC50 ± SD) hDNMT3A
Numbers only here, please. The scale is µM.

// EC50 lookup, key: `O=C(Nc1cccc(NC(=O)c2cccc(Nc3ccnc4ccccc34)c2)c1)OCc1ccccc1`
13

Try the compound `Cc1cc(Nc2ccc(C(=O)Nc3cccc(Nc4cc(C)nc(N)n4)c3)cc2)nc(N)n1`
13

Thanks! And `Cc1cc(Nc2cccc(NCc3cccc(Nc4ccnc5ccccc45)c3)c2)nc(N)n1` ?
12
